Data origin, for the record: ChEMBL document CHEMBL1156237

Test system: Coxsackievirus B2
test_description: Antiviral activity against Human coxsackievirus B2 Ohio-1 infected in african green monkey Vero cells after 3 days by plaque reduction assay
Assay type: functional, organism-based, Coxsackievirus B2 (strain Ohio-1)
particulars: Enterovirus B, Vero, 72 h
Cut-off 20 µM on EC50: below means class 1, at or above means class 0.

Check out these entries, answers already filled in.
compound: Nc1ccc(-c2nc3cc(C(F)(F)F)ccc3[nH]2)cc1
subject_of_test: Coxsackievirus B2
label_value: class 1

compound: CCC(=O)Nc1ccc(-c2nc3ccccc3[nH]2)cc1
subject_of_test: Coxsackievirus B2
label_value: class 1

compound: COc1ccc(-c2nc3cc(Cl)c(Cl)cc3[nH]2)c([N+](=O)[O-])c1
subject_of_test: Coxsackievirus B2
label_value: class 0

In: Consider `COc1ccc(-c2nc3cc([N+](=O)[O-])ccc3[nH]2)c(OC)c1OC` . Does its EC50 lie strictly below 20 µM?
Out: class 0

In: Consider `Nc1ccc(-c2nc3ccccc3[nH]2)cc1` . Does its EC50 lie strictly below 20 µM?
Out: class 1

In: Consider `Fc1cccc(F)c1-c1nc2cc(C(F)(F)F)ccc2[nH]1` . Does its EC50 lie strictly below 20 µM?
Out: class 0

In: Consider `COc1ccc(-c2nc3cc(Cl)c(Cl)cc3[nH]2)cc1` . Does its EC50 lie strictly below 20 µM?
Out: class 1

In: Consider `CN1CCN(CC(=O)Nc2ccc(-c3nc4cc(Cl)c(Cl)cc4[nH]3)cc2)CC1` . Does its EC50 lie strictly below 20 µM?
Out: class 0

---

System: Coxsackievirus B2
test_description: Antiviral activity against Human coxsackievirus B2 Ohio-1 infected in african green monkey Vero cells after 3 days by plaque reduction assay
Type: functional, organism-based, Coxsackievirus B2 (strain Ohio-1)
particulars: Enterovirus B, Vero, 72 h
Items are presented alongside their recorded log10 of EC50.
Lab note - EC50 converted to log10 from values in µM.

The examples below pair each entry with its known result.
compound_smiles: CC(=O)Nc1ccc(-c2nc3ccccc3[nH]2)cc1
log10 of EC50: 1.94
--
compound_smiles: COc1ccc(-c2nc3cc(C(F)(F)F)ccc3[nH]2)c(N)c1
log10 of EC50: 0.78
--
compound_smiles: COc1ccc(-c2nc3cc(C(F)(F)F)ccc3[nH]2)cc1
log10 of EC50: 0.85
--
compound_smiles: Fc1cccc(F)c1-c1nc2cc(Cl)c(Cl)cc2[nH]1
log10 of EC50: 1.48

In: Can you look up log10 of EC50 on Coxsackievirus B2 for `Nc1ccc(-c2nc3cc(Cl)c(Cl)cc3[nH]2)cc1` ?
Out: 1.04

---

test_description: Cytotoxicity against MDBK cells after 48 to 96 hrs by MTT assay
Format: cell-based, Bos taurus
particulars: cattle, mdbk
measured_quantity: CC50

In: For `O=C(CN1CCOCC1)Nc1ccc(-c2nc3cc(Cl)c(Cl)cc3[nH]2)cc1` , what is its reported CC50?
Out: > 100 µM

---

Items are presented alongside their recorded CC50.
test_description: Cytotoxicity against BHK cells after 48 to 96 hrs by MTT assay
Assay type: cell-based, Mesocricetus auratus
particulars: hamster
Supply the numeric figure in µM, leaving out any unit text.

The examples below pair each entry with its known result.
compound_smiles: O=[N+]([O-])c1ccc(-c2nc3cc(C(F)(F)F)ccc3[nH]2)c([N+](=O)[O-])c1
measurement: 8
--
compound_smiles: Cn1c(-c2ccc(N)cc2)nc2cc(C(F)(F)F)ccc21
measurement: 85
--
compound_smiles: O=C(CCl)Nc1ccc(-c2nc3cc(C(F)(F)F)ccc3n2C23CC4CC(CC(C4)C2)C3)cc1
measurement: 51
--
compound_smiles: Nc1ccc(-c2nc3cc(Cl)c(Cl)cc3[nH]2)cc1
measurement: 30
--
compound_smiles: CN1CCN(CC(=O)Nc2ccc(-c3nc4cc(C(F)(F)F)ccc4n3C)cc2)CC1
measurement: 16
--
compound_smiles: CC(=O)Nc1ccc(-c2nc3cc(C(F)(F)F)ccc3n2C2CCCCC2)cc1
measurement: 15
--
compound_smiles: CCN(CC)CC(=O)Nc1ccc(-c2nc3cc(C(F)(F)F)ccc3[nH]2)cc1
measurement: 23
--
compound_smiles: O=C(CN1CCOCC1)Nc1ccc(-c2nc3cc(C(F)(F)F)ccc3[nH]2)cc1
measurement: 86
--
compound_smiles: O=C(CNC12CC3CC(CC(C3)C1)C2)Nc1ccc(-c2nc3cc(C(F)(F)F)ccc3[nH]2)cc1
measurement: 18
--
compound_smiles: CCN(CC)CC(=O)Nc1ccc(-c2nc3cc(C(F)(F)F)ccc3n2C)cc1
measurement: 16

In: For `COc1ccc(-c2nc3cc(C(F)(F)F)ccc3[nH]2)c([N+](=O)[O-])c1` , what is its reported CC50?
Out: 100

In: For `Nc1ccc(-c2nc3cc(C(F)(F)F)ccc3n2C23CC4CC(CC(C4)C2)C3)cc1` , what is its reported CC50?
Out: 16

In: For `Cn1c(-c2ccc(NC(=O)CN3CCN(c4ccccc4)CC3)cc2)nc2cc(C(F)(F)F)ccc21` , what is its reported CC50?
Out: 100

In: For `O=C(CCl)Nc1ccc(-c2nc3cc(C(F)(F)F)ccc3[nH]2)cc1` , what is its reported CC50?
Out: 22

In: For `O=[N+]([O-])c1ccc(-c2nc3cc(C(F)(F)F)ccc3[nH]2)cc1` , what is its reported CC50?
Out: 18
